Data credit: PubChem BioAssay AID1418

- assay.target: Induced myeloid leukemia cell differentiation protein Mcl-1 (Homo sapiens)
- protocol: blockers of Bid binding to Mcl-1 – biochemical, TR-FRET, dose response (AID 1418)
- condition.details: Mcl-1/Bid peptide binding, TR-FRET (europium/Dy647), 2 hr
Calls of active or inactive are those of the source. No rule for the calls is given here.
Outcome codes: active, inactive

chemical_structure=N=C1/C(=C/c2cccn2-c2cccc([N+](=O)[O-])c2)C(=O)N=C2SC=CN12 answer_label=active
chemical_structure=Cc1cc(NC(=O)c2noc3c2CCc2ccccc2-3)no1 answer_label=inactive
chemical_structure=O=C(O)c1ccccc1NS(=O)(=O)c1ccc(NNC(=S)Nc2ccc(OC(F)F)cc2)c([N+](=O)[O-])c1 answer_label=active
chemical_structure=CN(C)CCCCOc1ccccc1-c1ccccc1 answer_label=inactive
chemical_structure=Cc1ccc(NC(=O)CN2CCc3ccccc3C2)cc1F answer_label=inactive
